experimental.system: human gpr-54 receptor (human, UniProt Q969F8 1-398)
Sequence (Q969F8 whole entry): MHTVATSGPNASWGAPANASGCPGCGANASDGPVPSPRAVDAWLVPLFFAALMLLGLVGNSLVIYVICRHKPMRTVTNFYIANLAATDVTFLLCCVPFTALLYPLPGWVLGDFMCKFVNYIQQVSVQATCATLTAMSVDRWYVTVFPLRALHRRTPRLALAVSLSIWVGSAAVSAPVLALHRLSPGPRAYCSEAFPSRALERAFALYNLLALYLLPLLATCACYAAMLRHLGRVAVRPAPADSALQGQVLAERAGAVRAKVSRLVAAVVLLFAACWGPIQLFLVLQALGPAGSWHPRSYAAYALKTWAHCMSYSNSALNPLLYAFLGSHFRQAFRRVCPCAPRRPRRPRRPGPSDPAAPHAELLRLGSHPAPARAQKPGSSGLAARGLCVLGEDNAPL
assay.info: cell-based or functional assay
Non-standard residues stand in square brackets, D forms with d. No end group written: not given here.
quantity.measured: Inhibition of IP stimulation by 10nM Agonist: % Inhibition of Max (%)
Report only the number, with the unit % understood.

# query: Inhibition of IP stimulation by 10nM Agonist: % Inhibition of Max of entry YNWNG[dF]GLRF-NH2 (N-terminus assumed; SMILES CC(C)C[C@H](NC(=O)CNC(=O)[C@@H](Cc1ccccc1)NC(=O)CNC(=O)[C@H](CC(N)=O)NC(=O)[C@H](Cc1c[nH]c2ccccc12)NC(=O)[C@H](CC(N)=O)NC(=O)[C@@H](N)Cc1ccc(O)cc1)C(=O)N[C@@H](CCCNC(=N)N)C(=O)N[C@@H](Cc1ccccc1)C(N)=O, kisspeptin-10 analogue; also called YNWNG[(D)-F]GLRF) [211]
73

# query: Inhibition of IP stimulation by 10nM Agonist: % Inhibition of Max of entry Ac-AGLRW-NH2 (kisspeptin-10 analogue; also called acAGLRW) [202]
64

# query: Inhibition of IP stimulation by 10nM Agonist: % Inhibition of Max of entry Ac-FG[dW]RF-NH2 (SMILES CC(=O)N[C@@H](Cc1ccccc1)C(=O)NCC(=O)N[C@H](Cc1c[nH]c2ccccc12)C(=O)N[C@@H](CCCNC(=N)N)C(=O)N[C@@H](Cc1ccccc1)C(N)=O, kisspeptin-10 analogue; also called acFG[(D)-W]RF) [206]
68

# query: Inhibition of IP stimulation by 10nM Agonist: % Inhibition of Max of entry Ac-[dF]NWNGFG[dW]RF-NH2 (SMILES CC(=O)N[C@H](Cc1ccccc1)C(=O)N[C@@H](CC(N)=O)C(=O)N[C@@H](Cc1c[nH]c2ccccc12)C(=O)N[C@@H](CC(N)=O)C(=O)NCC(=O)N[C@@H](Cc1ccccc1)C(=O)NCC(=O)N[C@H](Cc1c[nH]c2ccccc12)C(=O)N[C@@H](CCCNC(=N)N)C(=O)N[C@@H](Cc1ccccc1)C(N)=O) [244]
60
